Listed next: entries and their corresponding log10 vapour pressure (mmHg).
Respond numerically, and do not add a unit to the figure.

Reference set (8 entries):
{"molecule": "C=C1CCC2CC1C2(C)C (stereo not drawn)", "log10 vapour pressure (mmHg)": 0.467}
{"molecule": "N[C@@H](CCC(=O)O)C(=O)O", "log10 vapour pressure (mmHg)": -7.77}
{"molecule": "C=CC(=O)OCC(CC)CCCC (stereo not drawn)", "log10 vapour pressure (mmHg)": -0.75}
{"molecule": "FC(Cl)=C(F)Cl", "log10 vapour pressure (mmHg)": 2.95}
{"molecule": "CCc1cccnc1", "log10 vapour pressure (mmHg)": 0.403}
{"molecule": "O=C(CCl)CCl", "log10 vapour pressure (mmHg)": -0.202}
{"molecule": "CCC(C)OC(C)=O (stereo not drawn)", "log10 vapour pressure (mmHg)": 1.23}
{"molecule": "C=CCCl", "log10 vapour pressure (mmHg)": 2.57}

input: // log10 vapour pressure (mmHg) lookup, key: "CCc1cccc(CC)c1"
output: 0.0531

input: Then this molecule: "ClCC(Cl)(Cl)CCl"
output: 0.484

input: Then this molecule: "COP(=S)(OC)Oc1ccc([N+](=O)[O-])c(Cl)c1"
output: -5.4

input: Then this molecule: CC(Cl)c1ccccc1 (stereo not drawn)
output: -0.187

input: Then this molecule: ClC1=C(Cl)C2(Cl)C3C(Cl)C(Cl)CC3C1(Cl)C2(Cl)Cl (stereo not drawn)
output: -4.69

input: Then this molecule: "Cc1ccc([N+](=O)[O-])c(O)c1"
output: -1.7

input: Then this molecule: "FC(F)(F)c1ccccc1Cl"
output: 0.706

input: Then this molecule: CCC(C)c1ccc(O)c([N+](=O)[O-])c1 (stereo not drawn)
output: -2.34

input: Then this molecule: "CN(C)C(=O)Nc1ccc(Cl)c(Cl)c1"
output: -7.16

input: Then this molecule: "Clc1cc2c(Cl)ccc(Cl)c2c(Cl)c1Cl"
output: -6

input: Then this molecule: Clc1ccc(C(c2ccccc2Cl)C(Cl)(Cl)Cl)cc1 (stereo not drawn)
output: -5.87

input: Then this molecule: "Cc1ccc(N=C=O)cc1N=C=O"
output: -2.1

input: Then this molecule: "CCCCc1ccccc1"
output: 0.027

input: Then this molecule: "COC(=O)C=Cc1ccccc1"
output: -1.46

input: Then this molecule: "COP(=S)(OC)Oc1ccc([N+](=O)[O-])cc1Cl"
output: -5.44

input: Then this molecule: "CCCCCCCCBr"
output: -0.418

###

Listed next: entries and their corresponding boiling point.
# output: bare number, implied unit °C

Reference set (5 entries):
{"molecule": "CCC(=O)CC(C)CC (stereo not given)", "attribute measured": "boiling point", "observed": 159}
{"molecule": "CC#N", "attribute measured": "boiling point", "observed": 81.6}
{"molecule": "O=C1CCc2ccccc21", "attribute measured": "boiling point", "observed": 243}
{"molecule": "Brc1ccoc1", "attribute measured": "boiling point", "observed": 103}
{"molecule": "CCN(CC)CC(O)CN (stereo not given)", "attribute measured": "boiling point", "observed": 223}

input: // boiling point lookup, key: "CCNCCN(C)C"
output: 134

input: Then this molecule: "Cc1ccc(Br)cc1"
output: 184

input: Then this molecule: "CCCCOC(=O)/C=C\C(=O)OCCCC"
output: 281

input: Then this molecule: "CC(=O)OCC(C)C"
output: 116

input: Then this molecule: "CCOc1cccc(C=O)c1"
output: 246

###

Listed next: entries and their corresponding melting point.
# output: bare number, implied unit °C

Reference set (5 entries):
{"compound": "CC(C)(S)[C@@H](N)C(=O)O", "melting point / °C": 198}
{"compound": "Fc1ccc(-c2ccccc2)cc1", "melting point / °C": 74.2}
{"compound": "CC1=CC(=O)OC1=O", "melting point / °C": 7.5}
{"compound": "O=Cc1ccc(C=O)cc1", "melting point / °C": 117}
{"compound": "O=C(c1ccccc1)c1ccc(O)cc1O", "melting point / °C": 144}

input: // melting point lookup, key: "O=[N+]([O-])c1ccc(-c2ccccc2)cc1"
output: 114

input: Then this compound: "CC(C)(C)N(NC(=O)c1ccccc1)C(=O)c1ccccc1"
output: 178

input: Then this compound: "O=C1c2c(Br)c(Br)c(Br)c(Br)c2C(=O)N1CCN1C(=O)c2c(Br)c(Br)c(Br)c(Br)c2C1=O"
output: 445

input: Then this compound: "ClCCCCCCl"
output: -72.8

input: Then this compound: "O=[N+]([O-])c1ccc(Sc2ccccc2)cc1"
output: 56

input: Then this compound: "CC(C)COC(=O)CCCCC(=O)OCC(C)C"
output: -20

input: Then this compound: "CCCCCCOc1ccc(N)cc1"
output: 44

input: Then this compound: "C=CC(=O)OCCCC"
output: -64.6

input: Then this compound: "CCCCOCCOC(C)=O"
output: -63

input: Then this compound: "O=S(=O)(O)c1ccc(O)c2ncccc12"
output: 322

input: Then this compound: CCC(=O)C(CC(C)N1CCOCC1)(c1ccccc1)c1ccccc1 (centres undefined)
output: 75.5

input: Then this compound: "CC(C)(Oc1ccc(Cl)cc1)C(=O)O"
output: 118

input: Then this compound: "O=C(O)c1ccccc1I"
output: 163

input: Then this compound: "CCC(C)(C)c1cc(O)c(C(C)(C)CC)cc1O"
output: 180

input: Then this compound: "O=C=Nc1ccc([N+](=O)[O-])cc1"
output: 57

input: Then this compound: OC(c1ccc(F)cc1)(c1cncnc1)c1ccccc1Cl (centres undefined)
output: 126

input: Then this compound: "c1ccc2c(c1)-c1ccc3ccc4cccc5cc-2c1c3c45"
output: 164

input: Then this compound: "COc1nccnc1N(C(C)=O)S(=O)(=O)c1ccc(N)cc1"
output: 199

input: Then this compound: "Cc1ccc([N+](=O)[O-])c(F)c1"
output: 53.2

input: Then this compound: "Oc1ccc(Oc2ccccc2)cc1"
output: 84

input: Then this compound: "Clc1cccc2c(Cl)cccc12"
output: 107

###

Listed next: entries and their corresponding log10 vapour pressure (mmHg).
Respond numerically, and do not add a unit to the figure.

Reference set (8 entries):
{"compound": "COC(=O)/C(C)=C/OP(=S)(OC)OC", "observed": -2.92}
{"compound": "CCCCOCCOC(C)=O", "observed": -0.426}
{"compound": "COCCOCCOC", "observed": 0.471}
{"compound": "O=[N+]([O-])c1cccc(Cl)c1", "observed": -1.01}
{"compound": "FC(F)(F)C(F)(F)C(F)(F)C(F)(F)F", "observed": 3.3}
{"compound": "CCCC(C)CO (stereo not given)", "observed": 0.283}
{"compound": "CCCCCCCCCCCCCC(=O)OC", "observed": -3.31}
{"compound": "CN(C)P(=O)(OP(=O)(N(C)C)N(C)C)N(C)C", "observed": -3}

input: // log10 vapour pressure (mmHg) lookup, key: "CCCCOc1ccccc1"
output: -0.529

input: Then this compound: "C=COC=O"
output: 2.5

###

Decision: melting point >= 100 °C yields label 1, all other cases yield label 0.

Answered examples (6):
{"molecule": "CC(C)OC(=O)C(O)(c1ccc(Br)cc1)c1ccc(Br)cc1", "assigned class": "label 0"}
{"molecule": "C=C1CCC2CC1C2(C)C (stereo not given)", "assigned class": "label 0"}
{"molecule": "CCCCCCCCC", "assigned class": "label 0"}
{"molecule": "CCCC(C)(CO)CO", "assigned class": "label 0"}
{"molecule": "O=C1C(Cl)=C(NC(=O)C(Cl)Cl)C(=O)c2ccccc21", "assigned class": "label 1"}
{"molecule": "N#CCCCl", "assigned class": "label 0"}

input: In plain terms: is recorded melting point at least 100 °C for "CCC(=NO)C(C)=NO" ?
output: label 1

###

Decision: melting point >= 100 °C yields T, all other cases yield F.

{"compound": "C=COC(=O)CC", "assigned class": "F"}
{"compound": "CCC#CCC", "assigned class": "F"}
{"compound": "C1=Cc2cccc3cccc1c23", "assigned class": "F"}

Switching to the query record.
input: In plain terms: is recorded melting point at least 100 °C for "O=C(O)Cc1c(F)c(F)c(F)c(F)c1F" ?
output: T

###

Listed next: entries and their corresponding log10 Henry constant (atm·m³/mol).
Respond numerically, and do not add a unit to the figure.

{"molecule smiles": "O=C(Cl)C(F)(F)F", "observed": -3.35}
{"molecule smiles": "CCc1nccnc1OC", "observed": -4.83}
{"molecule smiles": "Cc1c(Cl)ccc(Cl)c1Cl", "observed": -2.82}

input: // log10 Henry constant (atm·m³/mol) lookup, key: "Clc1ccc(Cl)c(-c2c(Cl)ccc(Cl)c2Cl)c1"
output: -3.92

input: Then this molecule: "CCCCCCC=O"
output: -3.57
